// provenance: the supplement of paper PMC4862054

System: MDA-MB-468
Experiment: normalised viability (% of control), CellTiter-Blue; higher = more viable cells (about 100 = DMSO control)
Conditions: 10000 nM; incubation time: 72 h
Entries and their normalised viability values follow.
Write down the numeric answer in % and omit the unit.

Examples with their reported normalised viability follow.
Exercise: Which measured normalised viability belongs to "CC(C)C[C@H](NC(=O)[C@@H](COC(C)(C)C)NC(=O)[C@H](Cc1ccc(O)cc1)NC(=O)[C@H](CO)NC(=O)[C@H](Cc1c[nH]c2ccccc12)NC(=O)[C@H](Cc1cnc[nH]1)NC(=O)[C@@H]1CCC(=O)N1)C(=O)N[C@@H](CCCNC(=N)N)C(=O)N1CCC[C@H]1C(=O)NNC(N)=O" , tested on MDA-MB-468?
Solution: 108

Exercise: Which measured normalised viability belongs to "CC1(C)CCC(c2ccc(Cl)cc2)=C(CN2CCN(c3ccc(C(=O)NS(=O)(=O)c4ccc(N[C@H](CCN5CCOCC5)CSc5ccccc5)c(S(=O)(=O)C(F)(F)F)c4)cc3)CC2)C1" , tested on MDA-MB-468?
Solution: 71.2

Exercise: Which measured normalised viability belongs to "COc1c2occc2cc2ccc(=O)oc12" , tested on MDA-MB-468?
Solution: 105

Exercise: Which measured normalised viability belongs to "COc1ccc(S(=O)(=O)Nc2cccnc2Nc2ccc(O)cc2)cc1" , tested on MDA-MB-468?
Solution: 34.7

Note: attention shifts to another entry.
Exercise: Which measured normalised viability belongs to "C=CCn1c(=O)c2cnc(Nc3ccc(N4CCN(C)CC4)cc3)nc2n1-c1cccc(C(C)(C)O)n1" , tested on MDA-MB-468?
Solution: 10.1

* * *

Entries and their normalised response values follow.
System: MDA-MB-468
Assay: normalised response (% of control), CellTiter-Glo; higher = more viable cells (100 = DMSO, 0 = benzethonium chloride kill control)
Settings: incubation time: 72 h
Write down the numeric answer in % and omit the unit.

Exercise: Which measured normalised response belongs to CO[C@@]12[C@H](COC(N)=O)C3=C(C(=O)C(C)=C(N)C3=O)N1C[C@@H]1N[C@@H]12 [Mitomycin C] (1 nM) , tested on MDA-MB-468?
Solution: 90.4

Exercise: Which measured normalised response belongs to CO[C@@H]1[C@H](N(C)C(=O)c2ccccc2)C[C@H]2O[C@]1(C)n1c3ccccc3c3c4c(c5c6ccccc6n2c5c31)C(=O)NC4 [Midostaurin] (1000 nM) , tested on MDA-MB-468?
Solution: 26.9

Note: attention shifts to another entry.
Exercise: Which measured normalised response belongs to Cc1cn(-c2cc(NC(=O)c3ccc(C)c(Nc4nccc(-c5cccnc5)n4)c3)cc(C(F)(F)F)c2)cn1 [Nilotinib] (1000 nM) , tested on MDA-MB-468?
Solution: 93

* * *

System: Hs578T
Experiment: drug sensitivity score (DSS), CellTiter-Blue viability (DSS (AUC-based score)); higher = stronger viability inhibition; extreme values may be limits of the assay
Conditions: incubation time: 72 h
Entries and their drug sensitivity score values follow.
// print number alone

Exercise: Which measured drug sensitivity score belongs to CN(Cc1cnc2nc(N)nc(N)c2n1)c1ccc(C(=O)N[C@@H](CCC(=O)O)C(=O)O)cc1 [Methotrexate] , tested on Hs578T?
Solution: 4.17

Exercise: Which measured drug sensitivity score belongs to Cn1cc(C2=C(c3cn(C4CCN(Cc5ccccn5)CC4)c4ccccc34)C(=O)NC2=O)c2ccccc21 [Enzastaurin] , tested on Hs578T?
Solution: 9.93

Exercise: Which measured drug sensitivity score belongs to Nc1ccn([C@@H]2O[C@H](CO)[C@@H](O)C2(F)F)c(=O)n1 [Gemcitabine] , tested on Hs578T?
Solution: 7.89

Exercise: Which measured drug sensitivity score belongs to CCNC(=O)CCC/C=C\C[C@@H]1[C@@H](/C=C/[C@@H](O)CCc2ccccc2)[C@H](O)C[C@@H]1O [Bimatoprost] , tested on Hs578T?
Solution: 0

Exercise: Which measured drug sensitivity score belongs to C=CCn1c(=O)c2cnc(Nc3ccc(N4CCN(C)CC4)cc3)nc2n1-c1cccc(C(C)(C)O)n1 [MK1775] , tested on Hs578T?
Solution: 14.2

* * *

System: DU-4475
Assay: normalised response (% of control), CellTox Green; higher = less cell death (100 = DMSO, 0 = benzethonium chloride kill control)
Details: incubation time: 72 h
Entries and their normalised response values follow.
Write down the numeric answer in % and omit the unit.

Examples with their reported normalised response follow.
Exercise: Name the recorded normalised response for Cc1nc(C(=O)NCC(=O)O)c(O)c2ccc(Oc3ccccc3)cc12 [FG-4592] (100 nM) .
Solution: 105

Exercise: Name the recorded normalised response for CO[C@@]12[C@H](COC(N)=O)C3=C(C(=O)C(C)=C(N)C3=O)N1C[C@@H]1N[C@@H]12 [Mitomycin C] (1000 nM) .
Solution: 94.7

Exercise: Name the recorded normalised response for CC1(C)CCC(c2ccc(Cl)cc2)=C(CN2CCN(c3ccc(C(=O)NS(=O)(=O)c4ccc(N[C@H](CCN5CCOCC5)CSc5ccccc5)c(S(=O)(=O)C(F)(F)F)c4)cc3)CC2)C1 [Navitoclax] (10000 nM) .
Solution: 89.8

Exercise: Name the recorded normalised response for CCNC(=O)CCC/C=C\C[C@@H]1[C@@H](/C=C/[C@@H](O)CCc2ccccc2)[C@H](O)C[C@@H]1O [Bimatoprost] (5500 nM) .
Solution: 99.7

Exercise: Name the recorded normalised response for Cn1cc(C2=C(c3cn(C4CCN(Cc5ccccn5)CC4)c4ccccc34)C(=O)NC2=O)c2ccccc21 [Enzastaurin] (10000 nM) .
Solution: 111

Exercise: Name the recorded normalised response for CC(C)C[C@H](NC(=O)[C@@H](COC(C)(C)C)NC(=O)[C@H](Cc1ccc(O)cc1)NC(=O)[C@H](CO)NC(=O)[C@H](Cc1c[nH]c2ccccc12)NC(=O)[C@H](Cc1cnc[nH]1)NC(=O)[C@@H]1CCC(=O)N1)C(=O)N[C@@H](CCCNC(=N)N)C(=O)N1CCC[C@H]1C(=O)NNC(N)=O [Goserelin] (10000 nM) .
Solution: 98.9

Exercise: Name the recorded normalised response for C/C(=C\c1csc(C)n1)[C@@H]1C[C@@H]2O[C@]2(C)CCC[C@H](C)[C@H](O)[C@@H](C)C(=O)C(C)(C)[C@@H](O)CC(=O)N1 [Ixabepilone] (100 nM) .
Solution: 103

Exercise: Name the recorded normalised response for CC(=O)[C@]1(O)Cc2c(O)c3c(c(O)c2[C@@H](O[C@H]2C[C@H](N)[C@H](O)[C@H](C)O2)C1)C(=O)c1ccccc1C3=O [Idarubicin] (10 nM) .
Solution: 100

Exercise: Name the recorded normalised response for CNC(=O)c1ccccc1Sc1ccc2c(/C=C/c3ccccn3)n[nH]c2c1 [Axitinib] (1000 nM) .
Solution: 104

Exercise: Name the recorded normalised response for CC1(COc2ccc3c(c2)ncn3-c2ccc3cccc(N4CCC(N)CC4)c3n2)COC1 [Crenolanib] (10000 nM) .
Solution: 63.6

Next:
Exercise: Name the recorded normalised response for CCn1c(C(=O)N(C2CC2)C2CC2)cc2c3c(ncn3C)c(Nc3cc(C)n(C)n3)nc21 (100 nM) .
Solution: 101

Exercise: Name the recorded normalised response for CO[C@@H]1[C@H](N(C)C(=O)c2ccccc2)C[C@H]2O[C@]1(C)n1c3ccccc3c3c4c(c5c6ccccc6n2c5c31)C(=O)NC4 [Midostaurin] (10000 nM) .
Solution: 88.6

* * *

Test system: CAL-85-1
Experiment: normalised response (% of control), CellTiter-Glo; higher = more viable cells (100 = DMSO, 0 = benzethonium chloride kill control)
Conditions: incubation time: 72 h
MEASUREMENT LABEL: normalised response (%)
Write down the numeric answer in % and omit the unit.

Examples with their reported normalised response follow.
Exercise: Which measured normalised response belongs to CO[C@@]12[C@H](COC(N)=O)C3=C(C(=O)C(C)=C(N)C3=O)N1C[C@@H]1N[C@@H]12 [Mitomycin C] (100 nM) , tested on CAL-85-1?
Solution: 101

Exercise: Which measured normalised response belongs to CCNC(=O)c1noc(-c2cc(C(C)C)c(O)cc2O)c1-c1ccc(CN2CCOCC2)cc1 [NVP-AUY922] (10 nM) , tested on CAL-85-1?
Solution: 107

Exercise: Which measured normalised response belongs to C/C(=C\c1csc(C)n1)[C@@H]1C[C@@H]2O[C@]2(C)CCC[C@H](C)[C@H](O)[C@@H](C)C(=O)C(C)(C)[C@@H](O)CC(=O)N1 [Ixabepilone] (10 nM) , tested on CAL-85-1?
Solution: 97.5

Note: attention shifts to another entry.
Exercise: Which measured normalised response belongs to CC(=O)[C@]1(O)Cc2c(O)c3c(c(O)c2[C@@H](O[C@H]2C[C@H](N)[C@H](O)[C@H](C)O2)C1)C(=O)c1ccccc1C3=O [Idarubicin] (10 nM) , tested on CAL-85-1?
Solution: 105
